Target: NAD-dependent protein deacetylase sirtuin-1 (Homo sapiens)
Assay: Inhibitory activity against human SIRT1 at 100 uM
Would you kindly list inhibition for each of these compounds?

C[C@H](NC(=O)c1ccccc1/N=C/c1c(O)ccc2ccccc12)c1ccccc1; 60.2%
O=C(O)c1ccccc1/N=C/c1c(O)ccc2ccccc12; 26%
C[C@@H](NC(=O)c1ccccc1/N=C/c1c(O)ccc2ccccc12)c1ccccc1; 61.8%

For every record below, what is its inhibition?
1. CC(NC(=O)c1ccc(/N=C/c2c(O)ccc3ccccc23)cc1)c1ccccc1 (stereo not given)
2. CC(NC(=O)c1ccccc1/N=C/c1c(O)ccc2ccccc12)c1ccccc1 (stereo not given)
3. CC(NC(=O)c1ccccc1/N=C/c1cccc2ccccc12)c1ccccc1 (stereo not given)
4. N#Cc1ccccc1/N=C/c1c(O)ccc2ccccc12
5. CCOC(=O)c1ccccc1/N=C/c1c(O)ccc2ccccc12
6. CC(NC(=O)c1cccc(/N=C/c2c(O)ccc3ccccc23)c1)c1ccccc1 (stereo not given)

Result ::
82.6%
44.5%
33%
20%
9%
63%

Reference for the values: ChEMBL document CHEMBL1141869
